Reported Enzyme Activity Endpoint Assay: Fab′2 values for a set of proteins
- target system: pooled human IgG (human IgG1, 2, 3 and 4)
Reply with just the number (in ng/µL).

-- ask Endpoint output: Enzyme Activity Endpoint Assay: Fab′2 of PRT-423 (protein) MTITSVWTKGVTPPTPEDFRYNNEDVLHAPYVANQGWYDITKTFDGKDNLLCGAATAGNMLHWWFDQNKEEIERYLKKHPEKQKIIFNNQELFDVKAAIDTKDSQTNSKLFNYFRDKAFPNLSARQLGVMPDLVLDMFINGYYLNLGKTQSTDVNRPYQDKDKRGGIFDAVFTRGDQTTLLTARHDLKNKGLNEISDLIKQELTEGKALALSHTYANVRINHVINLWGADFDAEGNLIAIYVTDSDANASIGMKKYFVGRNANGKVAISAKKIEGDNIGAQVLGLFTLSTGQDIWQKLS . Value?
-- reply 398

-- ask Endpoint output: Enzyme Activity Endpoint Assay: Fab′2 of PRT-248 (protein) MVTSVWTKGVTPPTNFTYGEDVLHAPYVANQGWYDITKTFNGKDDLLCGAATAGNMLHWWFDQNKEQIENYLKKHPEKQKINFNGEQMFDVKEAIDTKDSQLDSKLFEYFKEKAFPNLSTKHLGVFPDHVIDMFINGYRLSLLNHGPTPVKRGSKDPRGGIFDAVFTRGDQSKLLTNRHDFKEKTLKEISDLIKQELTEGKALGISHTYANVRINHVINLWGADFDAEGNLEAIYVTDSDSNASIGMKKYFVGVNSSGKVAISAKEIEEDNIGAQVLGLFTLSTGQDIWNQTN . Value?
-- reply 654
